Assay: in vivo
Conditions: Wistar, rat, po
Observable: Cmax (ng/mL)
Supply the numeric figure in ng/mL, leaving out any unit text.

// sample CC(C)OC(=O)C(C)(C)Oc1ccc(C(=O)c2ccc(Cl)cc2)cc1 [uncoated particles, fenofibrate] , its Cmax was 12000

* * *

Assay: In vivo pharmacokinetic study in Beagle dogs
Details: dog, Beagle dogs (n=6), read-out: Cmax, Geometric Mean
Observable: Cmax (ng/mL)
Express it in ng/mL; write the number only.

Given item CC(C)OC(=O)C(C)(C)Oc1ccc(C(=O)c2ccc(Cl)cc2)cc1 [uncoated particles, fenofibrate] , the value recorded as its Cmax is 430

* * *

Assay: in vivo
Settings: Wistar, rat, po
Observable: Tmax (h)
Give the value in h but do not write h after it.

Record summary for CC(C)OC(=O)C(C)(C)Oc1ccc(C(=O)c2ccc(Cl)cc2)cc1 [uncoated particles, fenofibrate] : reported Tmax = 4

* * *

Assay: In vivo pharmacokinetic study in Beagle dogs
Conditions: dog, Beagle dogs (n=6), read-out: AUC0-t, Geometric Mean
Observable: AUC(0-t) (ng·h/mL)
Kindly answer with a numeric value in ng·h/mL, unit omitted.

The compound CC(C)OC(=O)C(C)(C)Oc1ccc(C(=O)c2ccc(Cl)cc2)cc1 [uncoated particles, fenofibrate] showed AUC(0-t) equal to 7800

* * *

Experiment: In vivo pharmacokinetic study in Beagle dogs
Details: dog, Beagle dogs (n=6), read-out: Cmax, Arithmetic Mean
Observable: Cmax (ng/mL)
Please state the figure in ng/mL; there is no need to write the unit.

The reported Cmax of the compound CC(C)OC(=O)C(C)(C)Oc1ccc(C(=O)c2ccc(Cl)cc2)cc1 [uncoated particles, fenofibrate] was 497
